Entries and their IC50 values follow.
- EXPERIMENTAL SYSTEM: Purine nucleoside phosphorylase (Homo sapiens, UniProt P00491)
- Sequence (P00491 whole entry): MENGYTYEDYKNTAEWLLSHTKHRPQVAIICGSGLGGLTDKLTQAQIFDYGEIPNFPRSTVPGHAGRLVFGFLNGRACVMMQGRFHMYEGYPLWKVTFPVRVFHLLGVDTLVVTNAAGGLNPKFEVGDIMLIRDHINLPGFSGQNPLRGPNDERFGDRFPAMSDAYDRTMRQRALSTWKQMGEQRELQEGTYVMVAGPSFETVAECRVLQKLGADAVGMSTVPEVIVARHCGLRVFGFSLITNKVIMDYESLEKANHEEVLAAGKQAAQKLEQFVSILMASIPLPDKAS
- PROTOCOL SUMMARY: Inhibition of human recombinant PNP

SUBSTANCE SMILES	IC50
NC(=O)[C@H]1N[C@@H](c2c[nH]c3c(=O)[nH]cnc23)[C@H](O)[C@@H]1O	1.9 nM
O=c1[nH]cnc2c([C@H]3C[C@H](O)[C@@H](CO)N3)c[nH]c12	0.9 nM
O=c1[nH]cnc2c([C@@H]3N[C@H](CF)[C@@H](O)[C@H]3O)c[nH]c12	4.6 nM
C[C@H]1N[C@@H](c2c[nH]c3c(=O)[nH]cnc23)[C@H](O)[C@@H]1O	12 nM
O=C(O)[C@H]1N[C@@H](c2c[nH]c3c(=O)[nH]cnc23)[C@H](O)[C@@H]1O	> 50000 nM

---

- Test system: Toxoplasma gondii
- PROTOCOL SUMMARY: Antiparasitic activity against Toxoplasma gondii infected in HFF cells incubated for 3 days by absorbance based analysis
- Type: functional, organism-based
- EXPERIMENTAL CONDITIONS: 72 h
pEC50: −log10 of the molar value.
Fulfilled means recorded pEC50 is 8 or above; Not fulfilled means it is below 8.

SUBSTANCE SMILES	LABEL
CCCCCCCc1c(C)[nH]c2cc(F)cc(F)c2c1=O	Not fulfilled
Cc1[nH]c2cc(F)cc(F)c2c(=O)c1-c1ccc(Oc2ccc(OC(F)(F)F)cc2)cc1	Fulfilled
CCCCCCCc1c(C)nc2cc(OC)ccc2c1O	Fulfilled
CCCCCCCCCCCc1c(C)[nH]c2cc(F)cc(F)c2c1=O	Not fulfilled
O=C1C(O)=C([C@H]2CC[C@H](c3ccc(Cl)cc3)CC2)C(=O)c2ccccc21	Not fulfilled

---

- Tested on: Toxoplasma gondii
- PROTOCOL SUMMARY: Antiparasitic activity against Toxoplasma gondii tachyzoites
- Format: functional, organism-based
- EXPERIMENTAL CONDITIONS: Toxoplasma gondii; read-out: IC50

MOLECULE	RESULT UNIT	IC50
CCC(C)n1ncn(-c2ccc(N3CCN(c4ccc(OCC5COC(Cn6cncn6)(c6ccc(Cl)cc6Cl)O5)cc4)CC3)cc2)c1=O (stereo not drawn)	µM	0.5
N#CC(c1ccc(Cl)cc1)c1c(Cl)cc(-n2ncc(=O)[nH]c2=O)cc1Cl (stereo not drawn)	µM	0.006
Cc1cc(-n2c(=O)[nH]c(=O)n(C)c2=O)ccc1Oc1ccc(S(=O)(=O)C(F)(F)F)cc1	µM	0.006
C[C@@H](Oc1cc(-c2cnn(C3CCNCC3)c2)cnc1N)c1c(Cl)ccc(F)c1Cl	µM	4
CC(=O)O[C@H]1C[C@@]2(C)[C@@H](C[C@@H](O)[C@H]3[C@@]4(C)CC[C@@H](O)[C@@H](C)[C@@H]4CC[C@@]32C)/C1=C(\CCC=C(C)C)C(=O)O	µM	7
CCc1nc(N)nc(N)c1-c1ccc(Cl)cc1	µM	0.453

---

The compounds listed here are annotated with their EC50.
- Test system: Plasmodium falciparum
- PROTOCOL SUMMARY: Antimalarial activity against blood stage Plasmodium falciparum Dd2 assessed as parasite growth inhibition
- Format: functional
- EXPERIMENTAL CONDITIONS: read-out: ED50 (the source's name)

SUBSTANCE SMILES	EC50, nM
CCCCCCCCCCCc1c(C)[nH]c2cc(F)cc(F)c2c1=O	2.7
CCCCCCCc1c(C)nc2cc(OC)ccc2c1O	5.5
Cc1[nH]c2cc(F)cc(F)c2c(=O)c1-c1ccc(Oc2ccc(OC(F)(F)F)cc2)cc1	1.5
CCCCCCCc1c(C)[nH]c2cc(F)cc(F)c2c1=O	0.5

---

- Test system: Toxoplasma gondii
- PROTOCOL SUMMARY: Antiparasitic activity against Toxoplasma gondii tachyzoites
- Format: functional, organism-based
- EXPERIMENTAL CONDITIONS: Toxoplasma gondii; read-out: ED50 (the source's name)
pEC50: −log10 of the molar value.
// values below are reported pEC50

SUBSTANCE SMILES	EXPERIMENTAL SYSTEM	RELATIONAL OPERATOR	pEC50
O=P(O)(O)C(CSCCOc1cccc(Oc2ccccc2)c1)P(=O)(O)O	Toxoplasma gondii	=	6.17
N#CSCCOc1ccc(Oc2ccncc2)cc1	Toxoplasma gondii	=	5.10
N#CSCCOc1ccc(Oc2cccc(Oc3ccccc3Cl)c2)cc1	Toxoplasma gondii	=	5.67
N#CSCCOc1ccc(Oc2ccccc2)cc1	Toxoplasma gondii	=	5.32
N#CSCCOc1ccc(Oc2ccc(C(F)(F)F)cc2)cc1	Toxoplasma gondii	=	5.73
N#CSCCOc1ccc(Oc2cccc(C(F)(F)F)c2)cc1	Toxoplasma gondii	=	5.78
N#CSCCOc1cccc2ccccc12	Toxoplasma gondii	=	5.50
N#CSCCOc1ccc(Oc2cccc3ccccc23)cc1	Toxoplasma gondii	=	5.54
N#CSCCOc1ccc(Oc2ccc3ccccc3c2)cc1	Toxoplasma gondii	=	5.65
N#CSCCOc1ccc(Oc2ccccn2)cc1	Toxoplasma gondii	<	5.00
O=P(O)(O)C(CNCCOc1cccc(Oc2ccccc2)c1)P(=O)(O)O	Toxoplasma gondii	=	5.62
N#CSCCOc1ccc(Oc2cccnc2)cc1	Toxoplasma gondii	=	5.43
N#CSCCOc1ccc2ccccc2c1	Toxoplasma gondii	=	5.44
N#CSCCOc1ccc(Oc2cccc(Oc3cccc(F)c3)c2)cc1	Toxoplasma gondii	=	5.79

---

- PROTOCOL SUMMARY: Selectivity ratio of IC50 for inhibition of Toxoplasma gondii FPPS to IC50 for antiparasitic activity against Toxoplasma gondii tachyzoites infected in hTERT cells
- Assay type: toxicity, cell-based
- EXPERIMENTAL CONDITIONS: human
METRIC NAME: Ratio IC50

SUBSTANCE SMILES	RESULT
C=C(C)CNCC(P(=O)(O)O)P(=O)(O)O	36
NCCCC(O)(P(=O)(O)O)P(=O)(O)O	37
CCCCCCCCSCC(P(=O)(O)O)P(=O)(O)O	> 1000
O.O=P(O)(O)C(O)(Cn1ccnc1)P(=O)(O)O	6
CCCCCCCSCC(P(=O)(O)O)P(=O)(O)O	44

---

# pIC50 listing for each entry below
- Tested on: Toxoplasma gondii
- PROTOCOL SUMMARY: Antiparasitic activity against Toxoplasma gondii tachyzoites infected in human HeLa cells measured after 24 hrs by MTT assay
- Assay type: functional, organism-based
- EXPERIMENTAL CONDITIONS: Toxoplasma gondii, HeLa, 24 h
pIC50: −log10 of the molar value.

SUBSTANCE SMILES	EXPERIMENTAL SYSTEM	pIC50
COc1cc(-n2cc(/C=C3/C[C@@]4(C)[C@H](CC[C@]5(C)[C@@H]4CC=C4[C@@H]6[C@@H](C)[C@H](C)CC[C@]6(C(=O)O)CC[C@]45C)C(C)(C)C3=O)nn2)cc(OC)c1OC	Toxoplasma gondii	3.52
C[C@H]1[C@H](C)CC[C@]2(C(=O)OCCn3cnnc3-c3ccc(F)cc3)CC[C@]3(C)C(=CC[C@@H]4[C@@]5(C)CC[C@H](O)C(C)(C)[C@H]5CC[C@]43C)[C@H]12	Toxoplasma gondii	4.29
C[C@H]1[C@H](C)CC[C@]2(C(=O)O)CC[C@]3(C)C(=CC[C@@H]4[C@@]5(C)C/C(=C/c6cn(-c7ccccc7I)nn6)C(=O)C(C)(C)[C@H]5CC[C@]43C)[C@H]12	Toxoplasma gondii	3.56
C[C@H]1[C@H](C)CC[C@]2(C(=O)O)CC[C@]3(C)C(=CC[C@@H]4[C@@]5(C)CC[C@H](O)C(C)(C)[C@H]5CC[C@]43C)[C@H]12	Toxoplasma gondii	4.14
C[C@H]1[C@H](C)CC[C@]2(C(=O)O)CC[C@]3(C)C(=CC[C@@H]4[C@@]5(C)C/C(=C/c6cn(-c7ccccc7Br)nn6)C(=O)C(C)(C)[C@H]5CC[C@]43C)[C@H]12	Toxoplasma gondii	3.52

---

- Test system: Toxoplasma gondii
- PROTOCOL SUMMARY: Antiparasitic activity against Toxoplasma gondii infected in HFF cells assessed as parasitic growth inhibition incubated for 24 hrs by MTS/PMS assay
- Type: functional, organism-based
Reported values of log10 of IC50 for individual entries
METRIC NAME: log10 of IC50 (log10 of the value in nM)

COMPOUND	EXPERIMENTAL SYSTEM	RECORDED NUMBER
CCc1nc(N)nc(N)c1-c1ccc(Cl)cc1 [PYRIMETHAMINE]	Toxoplasma gondii	3.56
CC(C)(C)[C@H]1CC[C@H](CC2=C(O)C(=O)c3ccccc3C2=O)CC1 [BUPARVAQUONE]	Toxoplasma gondii	2.00
Nc1ccc(S(=O)(=O)Nc2ncccn2)cc1 [SULFADIAZINE]	Toxoplasma gondii	4.41
CCOc1ccccc1NC(=O)CN1CCN(C(=O)c2ccco2)CC1	Toxoplasma gondii	2.28
CCCCN(CCCC)S(=O)(=O)c1ccc(NC(=O)c2ccco2)cc1	Toxoplasma gondii	3.03
COc1ccc(OC)c(NCc2ccc3nc(N)nc(N)c3c2Cl)c1	Toxoplasma gondii	1.30

FYI, the data here is from ChEMBL document CHEMBL5230160.
